The reported measurements were obtained from patent EP0049683A2.

For Escherichia coli 2018, measured MIC is reported for the entries below.
READOUT LABEL: MIC (µg/mL)

[[record]]
compound = "CCCC(C)CN1CCN(c2nc3c([nH]2)c2c(O)c4c(O)c(C)c5c(c43)C(=O)[C@@](C)(O/C=C/[C@H](OC)[C@@H](C)[C@@H](OC(C)=O)[C@H](C)[C@H](O)[C@H](C)[C@@H](O)[C@@H](C)/C=C/C=C(/C)C(=O)N2)O5)CC1 (stereo partly shown)"
subject_of_test = "Escherichia coli 2018"
experimental_result = 8

[[record]]
compound = "CCCN(CCC)c1nc2c3c(O)c4c(O)c(C)c5c(c4c2[nH]1)C(=O)C(C)(OC=CC(OC)C(C)C(OC(C)=O)C(C)C(O)C(C)C(O)C(C)C=CC=C(C)C(=O)N3)O5 (stereo not shown)"
subject_of_test = "Escherichia coli 2018"
experimental_result = 8

[[record]]
compound = "CO[C@H]1/C=C/O[C@@]2(C)Oc3c(C)c(O)c4c(O)c(c5nc(N6CCN(CC7CCCCCC7)CC6)[nH]c5c4c3C2=O)NC(=O)/C(C)=C\\C=C\\[C@H](C)[C@H](O)[C@@H](C)[C@@H](O)[C@@H](C)[C@H](OC(C)=O)[C@@H]1C"
subject_of_test = "Escherichia coli 2018"
experimental_result = 8

[[record]]
compound = "COC1C=COC2(C)Oc3c(C)c(O)c4c(O)c(c5nc(N(C)C)[nH]c5c4c3C2=O)NC(=O)C(C)=CC=CC(C)C(O)C(C)C(O)C(C)C(OC(C)=O)C1C (stereo not shown)"
subject_of_test = "Escherichia coli 2018"
experimental_result = 4

